Measurement description: Toxicity liver stage against HepG2, at 10uM
Format: cell-based
Set-up: test concentration 10 uM, cell line HepG2-A16-CD81EGFP
Run conditions: human, HepG2-A16-CD81EGFP cells; read-out: INHIBITION
Recorded endpoint: cytotoxicity at 10 µM (%)
Please respond with the number in % and leave the unit unwritten.

Solved entries:
What cytotoxicity at 10 µM value was documented for this molecule, `O=C(c1ccoc1)N1CCO[C@]2(CCC[C@H]2COCc2cccnc2)C1` ? 4.58

Proceed to `CS(=O)(=O)N1CCO[C@@H]2CN(C(=O)COC3CCCC3)C[C@@H]2C1` 7.04

Proceed to c1cc2nccc(CC3CCCN(Cc4c[nH]cn4)CC3)c2cn1 (configuration not stated) -5.11

Proceed to `CO[C@@H]1CCN(S(=O)(=O)N(C)C)[C@@H]2CN(Cc3ccncc3)C[C@@H]21` 15.1

Proceed to `CC(=O)N1CCCN(CCn2nc3ccccn3c2=O)CC1` -137

Proceed to `Cc1nc(CN2CCO[C@H]3CN(C(=O)c4cccn4C)C[C@H]32)cs1` -136

Proceed to `O=C(c1cccnc1O)N1CCN(Cc2ccccc2F)CC1` 5.57

Proceed to CC(NC(=O)c1cc(-c2cccc(Cl)c2)no1)C(=O)N(C)C (configuration not stated) -2.16

Continuing:
What cytotoxicity at 10 µM value was documented for this molecule, `O=C(Cc1ccccn1)N1CCN2C[C@H](Oc3cncnc3)C[C@H]2C1` ? -73

Proceed to Cc1c(C(=O)NC(CN2CCCC2=O)c2ccccc2)cnn1C (configuration not stated) -8.7

Proceed to COC(=O)CC(NC(=O)CCn1cccn1)c1ccc(C)cc1 (configuration not stated) 3.28

Proceed to `CCOc1ccc(NC(=O)N2CCNC(=O)C2)c(C(F)(F)F)c1` 7.09

Proceed to `Cc1cc(C(=O)O)c2c(Br)cccc2n1` -0.575

Proceed to CC(=O)NC(CC(=O)Nc1nc(C)c(C)s1)c1ccccc1 (configuration not stated) 3.78

Proceed to `CCN(Cc1nccn1C)C(=O)c1ccc(NCc2cnn(C)c2)nc1` 0.82

Proceed to `CC(C)C(=O)NCc1cc(Br)ccc1F` -3.98

Proceed to CN(C)C(=O)N1CCC(C(=O)N2CCOC(CC3CCCCC3)C2)CC1 (configuration not stated) 21.3

Proceed to c1ccc(CNC2CCc3ncnn3C2)nc1 (configuration not stated) -6.69

Proceed to `O=C(c1ccccc1)N1CCCn2c(CN3CCCCC3)nnc2C1` -65.5

Proceed to `CCCc1nc(C)cc(N2CCC3(CCC(=O)N(CCCO)C3)CC2)n1` -5.81

Proceed to O=C(C1CCCN1Cc1nc(-c2ccco2)no1)N1CCSCC1 (configuration not stated) -5.8

Proceed to `O=C(NC1CCCC1)O[C@H]1COCCN(c2nc3ccccc3o2)C1` -3.51

Proceed to `CN(C)c1ccc(-c2cc(=O)n3c(n2)CCCCC3)cc1` -13.1

Proceed to O=C(c1cnccn1)N1CCCC(Cc2cncc3ccccc23)C1 (configuration not stated) -31.4

Proceed to `CCc1ncc2c(n1)CN(CC(=O)Nc1nnc(C)s1)CC2` 2.94

Proceed to CCC(C)N1CCc2c(C(=O)N3CCOCC3)n[nH]c2C1 (configuration not stated) 1.88
